ED95 values, listed per item
# Test system: Strongyloides ratti
# method: In vivo nematode test, infected rats
# Design: species or system Ratten
# condition notes: Strongyloides ratti, dose at which 95% of the parasites were killed, oral by gavage on three consecutive days from day 7 after infection, killed day 13, read-out: effektive Dosis
# output: bare number, implied unit mg/kg

compound	target entity	ED95 / mg/kg
CN1C(=O)C(C(=O)Nc2ccc(Cl)c(C(F)(F)F)c2)C(=O)N(C)P1(=O)Oc1ccccc1 (stereo not shown)	Strongyloides ratti	100
CN1C(=O)C(C(=O)Nc2ccc(SC(F)(F)F)cc2)C(=O)N(C)P1(=O)Oc1ccc(Cl)cc1 (stereo not shown)	Strongyloides ratti	10
CN1C(=O)C(C(=O)Nc2ccc(Cl)c(C(F)(F)F)c2)C(=O)N(C)P1(=O)Oc1ccc(Cl)cc1 (stereo not shown)	Strongyloides ratti	25

*Q* # lookup: ED95 of CN1C(=O)C(C(=O)Nc2ccc(OC(F)(F)F)cc2)C(=O)N(C)P1(=S)Oc1ccccc1 (stereo not shown)
*A* 50

Sourced from patent EP0216105A1
